measured_parameter: melting point (°C)

CC(C)C(=O)NCCCC(=O)OC1c2ccccc2C(=O)N1c1ccc2ccc(Cl)nc2n1 (stereo not given)
208
CC(=O)OC1CSC(Sc2ccc(C#N)cc2)C(OC(C)=O)C1OC(C)=O (stereo not given)
155

* * *

measured_parameter: melting point

Sample answers from the record:
O=C(O)c1cccc2c(=O)c3ccccc3[nH]c12
> 300 °C
CCCCOc1ccc(CCCOc2c(CC(=O)O)cccc2OC)c(Oc2ccc(C(F)(F)F)cn2)c1
69 to 70 °C
O=[N+]([O-])c1ccccc1C(=C(Br)Br)c1ccc(F)cc1
99 to 100 °C
COc1cc(N)c(Cl)cc1C(=O)NCC1CCN(CCCCCNC(=O)c2ccccc2)CC1
138 to 140 °C
NC(=O)c1cccc2nccc(O)c12
205 to 207 °C

Kindly note the recorded melting point for Nc1sc2c(c1C(=O)c1ccc(Cl)cc1)CCN(CCc1ccc([N+](=O)[O-])cc1)C2 , which is 150 to 152 °C

Kindly note the recorded melting point for N#Cc1nn(-c2c(Cl)cc(C(F)(F)F)cc2Cl)c(Br)c1S(=O)(=O)C(F)(F)F , which is 136 to 137 °C

Kindly note the recorded melting point for COC(=O)C1=Cc2cc(-c3ccc(OC(F)(F)F)cc3)ccc2S(=O)(=O)CC1 , which is 142 to 143 °C

Kindly note the recorded melting point for CCNC(=O)c1c(Cl)cc(Cl)cc1[Si](C)(C)C , which is 101 to 103 °C

Kindly note the recorded melting point for N#Cc1ccc(NC(=S)NCc2ccccn2)cc1 , which is 144 °C

* * *

measured_parameter: melting point

Sample answers from the record:
CCOC(=O)C(CC(=O)c1ccc(OC)cc1)(NC(C)=O)C(=O)OCC
120 to 122 °C
Cc1oc(-c2ccccc2)nc1COc1ccc(COc2ccc(O)cc2CC#N)cc1
185 to 186 °C
CSC1=Nc2ccccc2N(C)c2cscc21
113 to 115 °C
CN1CCC(C(C(=O)N2CCCC2)(c2ccccc2)c2ccccc2)C1 (stereo not given)
137 to 140 °C

Please find the next molecule below.
Kindly note the recorded melting point for COc1ccc(CNc2nc(OCc3ccccn3)ncc2C(=O)c2cc(OC)c(OC)c(OC)c2)cc1NC(C)=O , which is 194 to 196 °C

* * *

measured_parameter: melting point

Sample answers from the record:
O=C1CCC[C@@H](c2ccc(Cl)cc2)N1c1ccccc1
77.5 to 80 °C
CCOC(=O)NNc1ccc(-c2cccc(C(F)(F)F)c2)nn1
168 to 170 °C
N#Cc1c(OCc2ccc(F)cc2F)ccn(Cc2cccc(F)c2)c1=O
187 to 190 °C
CN1CCN(c2cccc3c2C[C@H](NC(=O)c2ccccc2OS(C)(=O)=O)CC3)CC1
144 to 145 °C
COc1cc(C(=O)O)c(OC)c2ccccc12
142 to 144 °C
CCOC(=O)COc1c(F)cc(S(=O)CCNS(=O)(=O)c2ccc(Cl)cc2)cc1F (stereo not drawn)
137 to 138 °C

Please find the next compound below.
Kindly note the recorded melting point for CCOc1ccc(C(=O)c2c(N)sc3c2CCN(C(=O)OCc2ccccc2)C3)cc1 , which is 197 to 198 °C

* * *

The entries below are paired with their reported melting point.

Sample answers from the record:
O=c1c(Br)c(OCc2ccc(F)c(F)c2F)ccn1Cc1cccc(F)c1
176 to 178 °C
CCOC(=O)C(C)(OC)C(=O)Nc1ccc(Br)cc1C (stereo not given)
99 to 103 °C
Cc1nc(N2CCN(Cc3ccc(C(F)(F)F)cc3)C2=O)sc1C(=O)NCc1cccnc1
107 to 108 °C
Cc1nnc(-c2ccc3occ(-c4ccncc4)c3c2)o1
166 to 167 °C

Please find the next molecule below.
Kindly note the recorded melting point for Cc1ccccc1C(=O)c1ccc(Nc2ccccc2NC(=O)CO)cc1Cl , which is 127 to 129 °C

* * *

The entries below are paired with their reported melting point.

CC(=O)Nc1ccc(C(=O)O)cc1OCCO
208 °C

Kindly note the recorded melting point for CC1(C)C(C(=O)OCC(Cl)(Cl)Cl)N2C(=O)C(NC(=O)Cc3ccccc3)C2S1=O (stereo not given) , which is 166 to 168 °C

Kindly note the recorded melting point for CCCCCCCCCCCCCCCCCCNC(=O)NCCCS(C)=O (stereo not given) , which is 105 °C

Kindly note the recorded melting point for COc1ccc2[nH]c(S(=O)(=O)c3ccc(=O)[nH]n3)cc2c1 , which is > 250 °C

Kindly note the recorded melting point for COc1ccc2c3c(c(=O)oc2c1)CN(Cc1ccc(Cl)cc1)CC3 , which is 140 to 142 °C

Kindly note the recorded melting point for CC12CC3OC3CC1CCC1C2CCC2(C)C(O)C(N3CCCC3)CC12 (stereo not given) , which is 156 to 160 °C

Kindly note the recorded melting point for Cc1c2n(c3ccccc13)C(=O)C(Cn1ccnc1C)CC2 (stereo not given) , which is 120 to 121 °C

Kindly note the recorded melting point for Cc1c(NCCCNCC(O)COc2ccccc2)n(C)c(=O)n(C)c1=O (stereo not given) , which is 132 to 133 °C

Kindly note the recorded melting point for COCOc1cc(OCOC)c(C(=O)C=Cc2cc(OC)c(OCOC)c(OC)c2)c(O)c1CC=C(C)C , which is 91.2 to 92 °C

Kindly note the recorded melting point for CN(C)c1cccc2c1OC1(CC1)C2=O , which is 68.3 °C

* * *

measured_parameter: melting point

CCC(=O)OC(C#N)C(C#N)c1ccc(OC)c(OC)c1 (stereo unspecified)
92 to 94 °C

Kindly note the recorded melting point for Cc1ccc(-c2coc3cc(O)cc(O)c3c2=O)cc1 , which is 215 to 217 °C

Kindly note the recorded melting point for CN=C1CSc2ccccc2CN1 , which is 278 to 280 °C

Kindly note the recorded melting point for COc1cnc(OC)n2nc(NS(=O)(=O)c3c(F)cccc3C(F)(F)F)nc12 , which is 201 to 203 °C

Kindly note the recorded melting point for Clc1ccc(-c2cc3ccccc3s2)cc1 , which is 193 to 194 °C

Kindly note the recorded melting point for COC(=O)c1ccc(CN2CCN(c3nc(C)c(C(C)=O)s3)C2=O)cc1 , which is 174 to 175 °C

Kindly note the recorded melting point for Cc1cc(C)c(O)cn1 , which is 146 to 148 °C

* * *

The entries below are paired with their reported melting point.

C=C1SC(=S)N(c2cccc3c(-c4ccc(OC)c(C56CC7CC(CC(C7)C5)C6)c4)cccc23)C1=O
322 to 324 °C
CC(C)CN1CCS(=O)(=O)c2sc(S(N)(=O)=O)cc2C1
149 to 151 °C
CCOC(=O)c1c(O)nc(SCC)n1C(C)C
82 to 84 °C
O=C(O)Cc1c(C(=O)c2ccc(Cl)cc2)[nH]c2cc(Cl)ccc12
181 to 183 °C
C=CCn1c(=O)c2nc(-c3ccc(/C=C/C(=O)O)cc3)[nH]c2n(CC=C)c1=O
> 300 °C
CC(C)(C)COc1ccc(N)cc1Br
45 °C
CC(C)(C)OC(=O)NCCNC(=O)c1cccc(Br)n1
108 to 109 °C
O=C(NCc1ccccc1)C1=C(c2ccccc2)C(c2ccccc2)OC1=O (configuration not stated)
173 to 175 °C
COC(=O)c1ccc(CSCC(=O)[C@H](Cc2ccccc2)NC(=O)[C@H](CC(C)C)NC(=O)OCc2ccccc2)o1
85 to 93 °C
O=C(OC1CCc2c(c3ccccc3n2Cc2ccc(Cl)cc2)C1)c1ccccc1 (configuration not stated)
150 to 152 °C

Kindly note the recorded melting point for CCNC(=O)OCc1cnc(C)c(OC(=O)NCC)c1 , which is 121 to 122 °C

Kindly note the recorded melting point for OCc1cc2ccsc2s1 , which is 85 to 87 °C

Kindly note the recorded melting point for CCOC(=O)c1cnc(N(C)C)nc1 , which is 65 °C

Kindly note the recorded melting point for COC(=O)c1ccc(CN2CCC(N)CC2)nc1 , which is 173 to 175 °C

Kindly note the recorded melting point for COc1cccc(C(O)(CC2CCNCC2)c2cccc(OC)c2)c1 , which is 111 to 113 °C

Kindly note the recorded melting point for CCC(OC(C)C)c1cc(C(=O)OC)c(N)cc1C(F)(F)F (configuration not stated) , which is 54 to 56 °C

Kindly note the recorded melting point for CCOC(=O)c1c(C)cc2c(c1C)c(=O)n(-c1ccccc1Cl)c(=O)n2CC(=O)N1CCN(C)CC1 , which is 64 to 65 °C

* * *

The entries below are paired with their reported melting point.

Sample answers from the record:
Cc1oc(-c2ccco2)nc1CCOc1ccc(N)cn1
88 to 90 °C
O=C(NC1CCCCC1)c1c(O)c2cscc2[nH]c1=O
244 °C
OC(c1ncc[nH]1)(c1ccc(Cl)cc1Cl)c1ccc(Cl)cc1Cl
193 °C
N#CC1(c2ccc(Cl)c(Cl)c2)CC(Cl)=C(Cl)N1CCO (stereo unspecified)
143 to 145 °C

Please find the next compound below.
Kindly note the recorded melting point for Cc1ccc(CO)cc1NC(=O)CC12CC3CC(CC(C3)C1)C2 , which is 190 °C
